The measured values listed here are drawn from patent US12428446B2.

For each entry below, report its Day 1 content (%) value.
test: Evaluation of dissolution stability (content change on storage in dissolved state); type: physicochemical; details: 1 mg/1 ml dissolved state, 40° C. and RH 75%, day 1
Where no end group is shown, it is not given here. [ ]: non-standard residue; d: D form. The star is where a group is joined. Hyp = O=C(O)[C@@H]1C[C@@H](O)CN1; OiPr = CC(C)O*
Give the value in % but do not write % after it.

// sample Hyp-Gly-Gln-Asp (isopropyl ester)-Gly-Leu-Ala ([Hyp]GQD(OiPr)GLA) [Example 117] , its Day 1 content (%) was 90.61

// sample Hyp-Gly-Gln-D Asp-Gly-Leu ([Hyp]GQ[dD]GL) [Example 61] , its Day 1 content (%) was 87.65

// sample Hyp-Gly-Gln-Asp-Gly-D Leu ([Hyp]GQDG[dL]) [Example 62] , its Day 1 content (%) was 92.60

// sample Hyp-Gly-Gln-Asp-Gly-Leu-D Ala ([Hyp]GQDGL[dA]) [Example 66] , its Day 1 content (%) was 89.15

// sample Hyp-Gly-Gln-Asu-Gly-Leu (isopropyl ester) [Example 111] , its Day 1 content (%) was 90.71

----------
test: Evaluation of dissolution stability (content change on storage in dissolved state); assay type: physicochemical; conditions: 1 mg/1 ml dissolved state, 40° C. and RH 75%, day 1
Primed or numbered codes have the meaning given here. Where no end group is shown, it is not given here. [ ]: non-standard residue; d: D form. The star is where a group is joined. Pro(cis-4-F) = O=C(O)[C@@H]1C[C@H](F)CN1; Asu′ = aspartimide (aminosuccinimide); Hyp = O=C(O)[C@@H]1C[C@@H](O)CN1; OiPr = CC(C)O*
Property label: Day 1 content (%)
Give the value in % but do not write % after it.

// sample Hyp-Gly-Gln-Asp-Gly-Val ([Hyp]GQDGV) [Example 71] , its Day 1 content (%) was 93.07

// sample Hyp-Gly-Gln-Leu-Leu-Leu ([Hyp]GQLLL) [Example 98] , its Day 1 content (%) was 99.07

// sample Hyp-Gly-Gln-Glu-Phenyl Gly-Leu-Ala [Example 94] , its Day 1 content (%) was 98.77

// sample Hyp-Gly-Gln-Asp (isopropyl ester)-Gly ([Hyp]GQD(OiPr)G) [Example 115] , its Day 1 content (%) was 88.57

// sample cis-4F-Pro-Gly-Gln-Asp-Gly-Leu ([Pro(cis-4-F)]GQDGL) [Example 46] , its Day 1 content (%) was 87.32

// sample PGQDGL [Example 77] , its Day 1 content (%) was 86.66

// sample GQDGLA [Example 29] , its Day 1 content (%) was 93.74

// sample Asu-Gly-Leu-Ala-Gly-Pro-Lys ([Asu′]GLAGPK) [Example 105] , its Day 1 content (%) was 54.80

// sample Hyp-Gly-Gln-Asp-Gly-Leu (isopropyl ester) [Example 107] , its Day 1 content (%) was 76.34

// sample Hyp-Gly-Gln-Ala-Gly-Leu-Ala ([Hyp]GQAGLA) [Example 14] , its Day 1 content (%) was 96.58
